Values from the RNAGym collection of RNA variant scans (doi:10.1126/science.aae0568)

B1: tRNA (parent)
chain: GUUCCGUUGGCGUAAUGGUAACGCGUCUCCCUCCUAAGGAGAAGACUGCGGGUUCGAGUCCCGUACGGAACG

Variants of: B1
EXPERIMENT SUMMARY: yeast fitness relative to wild type (ratio to wild type); higher = fitter; tRNA-Arg(CCU), competitive growth, 37 C, YPD
Variants at the floor of the assay were thinned out.
OBSERVED PROPERTY: yeast fitness
Respond using a number only.

GUUCCGUUGGCGUAAUGGUAACGCGUCUCCCCCCUAAGGAGAAGACUGCGGGUUCGAAUCCUGUACGGCACG [U32C G58A C62U A69C] : 0.716
GUUCCGUUGGCGUAAUGGUAAUGCGUCCCCCUCUUAAGGCGAAGACUGCGGGUUCGAGUCCCGAACGGAACG [C22U U28C C34U A40C U64A] : 0.762
GUACCGUUGGCGUAAUGGUAACGCGUCUCCCUCCUAAGGAGAAGACUGCGGGUUCGAGUCCCAUACGGAACG [U3A G63A] : 0.772
GUUCCCUUGGCGUAAUGGUAACCCGUCUCCCUCCUAAGGAGAAGACUGCGGGUUCGAGUCCCGUACGGAACG [G6C G23C] : 0.643

Ask: # get_value(readout='yeast fitness', item= GUUCGGUUGGCGUAAUCGUAACGCAUCUCCCUCCUAAGGCGAAGACUGCGGGUUCGAGACCCGUACGGAACG [C5G G17C G25A A40C U59A] )
Reply: 0.54
